# Target desc: T1, mouse MAdCAM expressed on cells (mouse, UniProt Q61826 22-405)
# T1 construct: whole, on cells
# T1 sequence (looked up): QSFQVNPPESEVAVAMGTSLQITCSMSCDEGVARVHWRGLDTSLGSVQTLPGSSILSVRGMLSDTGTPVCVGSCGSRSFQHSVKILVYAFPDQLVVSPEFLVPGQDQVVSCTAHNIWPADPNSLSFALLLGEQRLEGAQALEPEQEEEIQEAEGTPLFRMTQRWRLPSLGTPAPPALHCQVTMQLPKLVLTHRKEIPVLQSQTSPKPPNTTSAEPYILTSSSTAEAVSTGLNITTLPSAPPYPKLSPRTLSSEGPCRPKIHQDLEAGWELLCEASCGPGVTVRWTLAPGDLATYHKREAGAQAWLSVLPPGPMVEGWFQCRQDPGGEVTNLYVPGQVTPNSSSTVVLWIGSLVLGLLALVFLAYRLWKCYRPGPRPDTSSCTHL
# Assay explanation: cell binding
Property: binding result

binder="MAdCAM antibody Table 1 clone 42 (scFv) scFv: QVQLVQSGAEVKKPGSSVKVSCKASGGTLSRYGVSWVRQAPGQGLEWMGGIIPIFGTTNYAQKFQGRVTITADESTSTAYMELSSLRSEDTAVYYCARDRVYYDSSGYPTWYFDLWGRGTLVTVSSGGGGSGGGGSGGGGSGGGGSEIVMTQSPATLSVSPGERATLSCRASQSVSSSYLAWYQQKPGQAPRLLIYGASTRATGIPARFSGSGSGTEFTLTISSLQSEDFAVYYCQQYGSSPITFGQGTKVEIK" result="no binding"
binder="MAdCAM antibody Table 1 clone 64 (scFv) scFv: EVQLLESGGGLVKPGGSLRLSCAASGFAFSSHWMHWVRQAPGKGLEWVAGTSGSGESRDYADFVKGRFTISRDDSKNTLYLQMNSLKTEDTAVYYCARETYYYYYMDVWGKGTTVTVSSGGGGSGGGGSGGGGSGGGGSDIQMTQSPSSLSASVGDRVTITCRASQGISNYLAWYQQKPGKAPKLLIYDAANLEGGVPSRFSGSGSGTDFTLTISSLQPEDFATYYCQQSDIFPPTFGQGTKVEIK" result=binds
binder="MAdCAM antibody Table 1 clone 56 (scFv) scFv: EVQLLESGGGLVQPGGSLRLSCAASGFTFDDYAMHWVRQAPGKGLEWVSAISGGGEDTYYADSVKGRFTISRDNSKNTLYLQMNSLRAEDTAVYYCARDASYGGNYGMDVWGQGTTVTVSSGGGGSGGGGSGGGGSGGGGSDIQMTQSPSSLSASVGDRVTITCQASQDIRNYLNWYQQKPGKAPKLLIYKASSLESGVPSRFSGSGSGTDFTLTISSLQPEDFATYYCQQANSYPVTFGGGTKVEIK" result="no binding"
binder="MAdCAM antibody Table 1 clone 28 (scFv) scFv: QVQLVQSGAEVKKPGASVKVSCKASGYTFTDYFLHWVRQAPGQGLEWMGWMNPTSGNTGYAQKFQGRVTMTRDTSTSTVYMELSSLRSEDTAVYYCAREGEGSGFDYWGQGTLVTVSSGGGGSGGGGSGGGGSGGGGSDIQMTQSPSSLSASVGDRVTITCRASQGINSWLAWYQQKPGKAPKLLIYDASNLETGVPSRFSGSGSGTDFTLTISSLQPEDFATYYCQQSYSTPLTFGGGTKVEIK" result="no binding"

Now examine the next entry.
Prompt: I'd like to know its binding result. The binder in question is MAdCAM antibody Table 1 clone 21 (scFv) scFv: EVQLLESGGGLVQPGGSLRLSCAASGFTFSNAWMSWVRQAPGKGLEWVSTIVGNGGATYYADSVKGRFTISRDNSKNTLYLQMNSLRAEDTAVYYCARDNPLRWQGMDVWGQGTLVTVSSGGGGSGGGGSGGGGSGGGGSDIQMTQSPSSLSASVGDRVTITCRASQDISNYLNWYQQKPGKAPKLLIYAASSLQSGVPSRFSGSGSGTDFTLTISSLQPEDFATYYCQQSYSIPPTFGPGTKVDIK
Response: no binding
